Experiment: Pharmacokinetic study in Balb/c mice
Type: in vivo
Details: male, mouse, whole blood; X1, Balb/c mice, VV116 oral 25 to 100 mg/kg; read-out: elimination half-life
readout_kind: half-life

[
  {
    "molecule": "[2H]c1cc([C@]2(C#N)O[C@H](CO)[C@@H](O)[C@H]2O)n2ncnc(N)c12 [X1]",
    "assay_result": "2.3 to 4.25 h"
  }
]

----------
Assay: Cellular toxicity in A549 cells (WST-8 cell viability)
Assay type: cell-based
Conditions: human

[
  {
    "mol_smiles": "CCC(CC)COC(=O)[C@H](C)N[P@](=O)(OC[C@H]1O[C@@](C#N)(c2ccc3c(N)ncnn23)[C@H](O)[C@@H]1O)Oc1ccccc1",
    "CC50 at 48 h, µM": 226
  }
]
